Please provide measured self-cleavage for the entries that follow.
B1: LINE1-full (parent)
chain: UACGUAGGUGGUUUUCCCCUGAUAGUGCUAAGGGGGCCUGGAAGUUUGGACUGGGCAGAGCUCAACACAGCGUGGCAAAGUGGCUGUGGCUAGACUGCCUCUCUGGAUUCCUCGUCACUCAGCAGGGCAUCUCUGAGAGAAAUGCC

variants of: B1; assay: self-cleavage, relative activity (ratio to wild type); higher = more cleavage; in vitro, sequencing; the parent is a self-cleaving ribozyme
Write no unit; give the number alone.

Note to self: self-cleavage recorded for A24G A64C was 0.38

// sample U15A G127U , its self-cleavage was 1.87

Lab note: U15C U81A gave self-cleavage of 2.14

The recorded self-cleavage for A69G G89A is 0.03

U9A C120U yielded self-cleavage of 1.12

// self-cleavage lookup, variant = A30U A77U , result: 0.98

Item: U14A C90U | self-cleavage: 0.04

Notebook: G93A A117G , self-cleavage read as 0.06

// self-cleavage value for A42G A142G : 1.48

// sample U20G U81A , its self-cleavage was 2.03

Per the record, U23C U91G has self-cleavage of 0.15

Reported self-cleavage of A117C A138G : 2.04

Query U14A U115A yields self-cleavage of 0.7

So, A2G U15C ? Its self-cleavage was 0.89

Quick note, self-cleavage for A124G C146A landed at 0.84

GET /value?item= G80A G88U &field=self-cleavage returns 0.15

Reported self-cleavage of A57G C116U : 0.71

The measured self-cleavage associated with G53U U130C reads 1.5

Reported self-cleavage of U1A U52C : 1.64

Note to self: self-cleavage recorded for A92U U119C was 0.87

Lab note: measured self-cleavage of U15A U96C was 0.41

Quick note, self-cleavage for G48A A59G landed at 0.03

Notebook: U5A G36A , self-cleavage read as 1.19

// recorded self-cleavage for A67U A94G : 0.02

Summary for this variant, U39A C120U : self-cleavage is 1.56

Note to self: self-cleavage recorded for A24G A43G was 1.12

Measured self-cleavage of U96A A141G : 0.08

Reported self-cleavage of A78U A141G : 1.96

// self-cleavage value for A94G G97A : 0.02

self-cleavage reported for this variant G10A U104A : 0.91

Sure, the documented self-cleavage for U47C U100C is 2.49

# variant A30G G35A ; its self-cleavage = 1.11

self-cleavage in this record for G93U G122A : 0.06

// self-cleavage lookup, variant = U13C U52A , result: 1.44

// sample U91C U112A , its self-cleavage was 0.42

Entry U85A A136G , self-cleavage reported as 0.11

Input G8A A57U . Output self-cleavage: 0.16

Noted for G35A U73C : its self-cleavage reads 1.19

Item: U26C A129U | self-cleavage: 1.24

The measured self-cleavage associated with U14C G49U reads 1.21

Query U52C G126A yields self-cleavage of 1.18

Sure, the documented self-cleavage for U104C U130C is 1.71

variant U52G A64U , self-cleavage observed: 0.7

What the record says about G11A G105A : self-cleavage is 1.27

// U1G G80A : self-cleavage value = 0.75

The variant listed as U5C U45C shows self-cleavage equal to 1.32
